# Test system: Vero E6 infected with SARS-CoV-2
# Experiment Notes: inhibition of SARS-CoV-2 cytopathic effect; higher = more antiviral protection, active = above 15
# Assay Setup: 8.33 nM; 48 h
Property: inhibition of SARS-CoV-2 cytopathic effect (%)
Kindly provide the numeric value in % only, without the unit symbol.

Example molecules with recorded inhibition of SARS-CoV-2 cytopathic effect:
Endpoint output: inhibition of SARS-CoV-2 cytopathic effect of `Clc1ccccc1CN1CCc2sccc2C1` . Value?
-0.14

Same question for CCN(CCO)CCCC(C)Nc1ccnc2cc(Cl)ccc12 (centres undefined) [hydroxychloroquine] please.
2.78

Same question for `c1ccc2c(-c3cnn4cc(-c5ccc(N6CCNCC6)cc5)cnc34)ccnc2c1` please.
4.28

Same question for `O=C(CN1CCNCC1)NC1CCCCC1` please.
-1.47

Same question for `COC1=C[C@@H]2[C@@H]3Cc4ccc(OC)c(O)c4[C@]2(CCN3C)CC1=O` please.
0.19

Further cases:
Endpoint output: inhibition of SARS-CoV-2 cytopathic effect of CCCCc1ccc(C(N)=O)nc1 [bupicomide] . Value?
0.4

Same question for CCCN(C/C=C/I)C1CCc2cccc(O)c2C1 (centres undefined) [8-hydroxy-PIPAT] please.
1.88

Same question for `CC(=O)[C@@]1(O)CC[C@H]2[C@@H]3C[C@H](C)C4=CC(=O)C=C[C@]4(C)[C@@]3(F)[C@@H](O)C[C@@]21C` please.
0.61

Same question for `N#Cc1c[nH]c2c(C(=O)N3CCN(CCc4ccc(F)cc4)CC3)cccc12` please.
-1.53

Same question for `CC(C)(C)c1cc(NC(=O)Nc2ccc(-c3cn4c(n3)sc3cc(OCCN5CCOCC5)ccc34)cc2)no1` please.
-0.28

====

# Tested on: Vero E6 infected with SARS-CoV-2
# Experiment Notes: inhibition of SARS-CoV-2 cytopathic effect; higher = more antiviral protection, active = above 15
# Assay Setup: 10000 nM; 48 h
Property: inhibition of SARS-CoV-2 cytopathic effect (%)
Kindly provide the numeric value in % only, without the unit symbol.

Example compounds with recorded inhibition of SARS-CoV-2 cytopathic effect:
Endpoint output: inhibition of SARS-CoV-2 cytopathic effect of `CC(=O)Nc1ccc(OC[C@](C)(O)C(=O)Nc2ccc([N+](=O)[O-])c(C(F)(F)F)c2)cc1` . Value?
-1.92

Same question for `O=C(Nc1ccc(S(=O)(=O)Nc2nccs2)cc1)C(c1ccccc1)c1ccccc1` please.
-2.52

Same question for `O=c1[nH]c2ccccc2c(=O)n1CCCN1CCN(c2ccccc2)CC1` please.
0.03

Further cases:
Endpoint output: inhibition of SARS-CoV-2 cytopathic effect of `CCN1CCN(Cc2ccc(Nc3ncc(F)c(-c4cc(F)c5nc(C)n(C(C)C)c5c4)n3)nc2)CC1` . Value?
12.3

Same question for `Cc1ccc(NC(=O)Nc2cc(C(F)(F)F)ccc2F)cc1Nc1ccc2c(c1)NC(=O)/C2=C\c1ccc[nH]1` please.
4.87

Same question for `Nc1nc(=O)n([C@H]2C[C@H](O)[C@@H](CO)O2)cc1F` please.
-2.15

Same question for `Cc1cc(/C=C/C#N)cc(C)c1Nc1ccnc(Nc2ccc(C#N)cc2)n1` please.
-6.76

Same question for Cc1cccc(OCC(O)CNC(C)(C)C)c1C (centres undefined) please.
-5.66

Same question for `Cc1c(Cn2c(C)nc3c(C(=O)O)cc(N4CCOCC4)cc32)cccc1C(F)(F)F` please.
-2.66
